target-or-system: PscD (PscD-SD, Cache sensor domain of chemoreceptor PscD) (Pseudomonas syringae, UniProt A0ABY1U976)
Construct: gene CFBP3846_03581; sensor domain, Gln31-Trp188, N-terminal His6 tag
Sequence (A0ABY1U976 31-188): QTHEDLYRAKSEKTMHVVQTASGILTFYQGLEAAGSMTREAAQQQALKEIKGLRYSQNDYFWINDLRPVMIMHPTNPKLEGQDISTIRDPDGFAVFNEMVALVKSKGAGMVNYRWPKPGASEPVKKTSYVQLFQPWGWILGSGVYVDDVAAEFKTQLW
test-conditions: Biolog plate compound, exact concentration unknown; binder
Peptide text beside a SMILES is read from it.
measured-attribute: Δ Tm (°C)
// note: answer is a bare numeric in °C

Q: Query (molecule): NCCO [2-Aminoethanol] ; field requested: Δ Tm
Ans: 0.15

Q: What Δ Tm value was documented for this molecule, O=C(O)[C@H](O)[C@@H](O)[C@H](O)[C@H](O)CO [D-Gluconic Acid] ?
Ans: 0.17

Q: // query Δ Tm value for entry N[C@@H](C(=O)O)[C@@H](O)[C@H](O)[C@H](O)CO [D-Glucosaminic Acid]
Ans: 0.10

Q: Could you tell me which Δ Tm is on file for NCC(=O)N[C@@H](CCC(=O)O)C(=O)O [Glycyl-L-Glutamic Acid] (H-Gly-Glu-OH) ?
Ans: 0.00

Q: Please give the measured Δ Tm for this molecule: O=CO [Formic Acid]
Ans: 0.20

Q: Suppose we examine the molecule OC[C@H]1OC(O)[C@@H](O)[C@@H](O)[C@@H]1O (stereo partly drawn) [D-Mannose] ; what Δ Tm value has been reported?
Ans: 0.17

Q: # get_value(readout='Δ Tm', item= O=C[C@H](O)[C@H](O)[C@@H](O)CO [L-Lyxose] )
Ans: 0.28

Q: Report Δ Tm for OC[C@H]1O[C@@H](O[C@H]2[C@H](O)[C@@H](O)[C@@H](O)O[C@@H]2CO)[C@H](O)[C@@H](O)[C@H]1O [α-D-Lactose] please.
Ans: 0.12

* * *

Exercise: for every item that follows, state its recorded Δ Tm.
target-or-system: PscD (PscD-SD, Cache sensor domain of chemoreceptor PscD) (Pseudomonas syringae)
Construct: gene CFBP3846_03581; sensor domain, Gln31-Trp188, N-terminal His6 tag
test-conditions: Biolog plate compound, exact concentration unknown; binder
Protocol: We used high-throughput fluorescence thermal shift (FTS) assays (as described previously[16]) to screen for potential ligands of PscD-SD. […] In our FTS assays, the Tm was measured by monitoring an increase in fluorescence of a dye with affinity for hydrophobic parts of the protein (i.e. SYPRO Orange), which are exposed as the protein unfolds. […] The first derivative values (−dF/dt) from the raw fluorescence data were used to determine the melting temperature (Tm). […]
Peptide text beside a SMILES is read from it.
# output: bare number, implied unit °C

Q: Which Δ Tm value is on record for O[C@@H]1[C@@H](O)[C@@H](O)CO[C@H]1O ?
Ans: 0.05

Q: Any idea what its Δ Tm is? The molecule is NCCc1ccccc1
Ans: 0.17

Q: Which Δ Tm reading was recorded for the molecule C[C@@H](O)[C@H](N)C(=O)O ?
Ans: 0.12

Q: # lookup: Δ Tm of C[C@H](O)C(=O)O
Ans: 0.12

Q: So what does the record say about Δ Tm for Nc1ncnc2c1ncn2[C@@H]1O[C@H](CO)[C@@H](O)[C@H]1O ?
Ans: 0.15

Q: Query: Δ Tm; subject: C[C@@H](N)C(=O)O
Ans: 0.12

Q: Recorded Δ Tm for OC[C@@H](O)[C@@H](O)[C@@H](O)CO , please?
Ans: 0.12

Q: Endpoint output: Δ Tm of N[C@H](CO)C(=O)O . Value?
Ans: 0.00

Q: I'd like to know its Δ Tm. The molecule in question is C[C@H](N)C(=O)NCC(=O)O [L-Alanyl-Glycine] (H-Ala-Gly-OH)
Ans: 0.07

Q: What value of Δ Tm has been reported for the following molecule? OC[C@@H](O)[C@@H](O)[C@H](O)[C@@H](O)CO
Ans: 0.05

Q: Any idea what its Δ Tm is? The molecule is O=C(O)CCC(=O)O
Ans: 0.10

Q: Fill in the blank: the reported Δ Tm of COC(=O)CCC(=O)O [Mono Methyl Succinate] is ____.
Ans: 0.12

Q: Any idea what Δ Tm was measured for O=C(O)CC(CC(=O)O)C(=O)O ?
Ans: -0.03

Q: Look at this molecule and give its reported Δ Tm. OCC(O)CO
Ans: 0.10

Q: What does the record list as Δ Tm for NCC(=O)N1CCC[C@H]1C(=O)O [Glycyl-L-Proline] (H-Gly-Pro-OH) ?
Ans: 0.00

Q: Given the molecule CCC(=O)O [propionate] , what is its reported Δ Tm?
Ans: 2.66

Q: Requested field: Δ Tm. Item: CC(=O)N[C@@H]1[C@@H](O)[C@H](O)[C@@H](CO)O[C@@H]1O
Ans: 0.10

Q: Using the record for N[C@@H](CC(=O)O)C(=O)O , report its Δ Tm.
Ans: 0.17

Q: Can you share its Δ Tm? I mean this molecule: OC[C@H]1O[C@@H](O[C@@H]2[C@@H](CO)OC(O)(CO)[C@H]2O)[C@H](O)[C@@H](O)[C@H]1O (mixture of isomers)
Ans: 0.20

Q: Fill in the blank: the reported Δ Tm of CC(O)CO (stereo not drawn) is ____.
Ans: 0.12

Q: For CC(=O)N[C@H]1[C@@H](O)[C@H](O)[C@@H](CO)O[C@H]1O , what is its reported Δ Tm?
Ans: 0.07

Q: So what does the record say about Δ Tm for OC[C@H]1O[C@H](O)[C@H](O)[C@@H](O)[C@@H]1O ?
Ans: 0.12

Q: Which value of Δ Tm has been reported for CC(=O)CC(=O)O in the records?
Ans: 0.63

Q: Quick one: Δ Tm for O[C@@H]1[C@H](O)[C@H](O)CO[C@H]1O ?
Ans: 0.12
